ASSAY_SUMMARY: Pharmacokinetics of caspofungin during continuous venovenous hemodiafiltration (CVVHD)
Format: in vivo, human
MEASUREMENT_PARAMETERS: human, in vivo, iv; Mean ± SD of 12 patients; steady state, CVVHD; SD; read-out: Vd
Description: The aim of the present study was to describe the pharmacokinetics of caspofungin in 12 critically ill adult patients with suspected or proven invasive candidiasis who were receiving continuous venovenous hemodiafiltration (CVVHD). CVVHD was performed using a polysulfone hemofilter (Fresenius, Germany). Caspofungin was administered at usual doses. […]
QUANTITY_KIND: Vd (L)
Expressed in L, but write only the number.

What value of Vd has been reported for the following compound? CC[C@H](C)C[C@H](C)CCCCCCCCC(=O)N[C@H]1C[C@@H](O)[C@@H](NCCN)NC(=O)[C@@H]2[C@@H](O)CCN2C(=O)[C@H]([C@H](O)CCN)NC(=O)[C@H]([C@H](O)[C@@H](O)c2ccc(O)cc2)NC(=O)[C@@H]2C[C@@H](O)CN2C(=O)[C@H]([C@@H](C)O)NC1=O [caspofungin] 16.4
